test system: Escherichia coli TOP10; experiment: shrunken log2 fold change of peptide-encoding DNA abundance (4.5 h post-induction vs induction); higher = less antimicrobial activity (less host growth inhibition); settings: time post-induction: 4.5 h; library: site-saturation at positions 5, 18, 19, 20
If the reported shrunken log2 fold change equals or exceeds -0.02, assign yes (1). If not, assign no (0).

Identify whether the reported shrunken log2 fold change of the following sequence is -0.02 or greater: "RRIRRRPPRLPRPRPRPDFSPRP"
no (0)

Item "RRIRHRPPRLPRPRPRPGNLPRP" with shrunken log2 fold change of -0.02 or above?
yes (1)

Decide: is the reported value of shrunken log2 fold change for "RRIRRRPPRLPRPRPRPSIQPRP" equal to or greater than -0.02?
no (0)

Dear colleague, could you confirm whether "RRIRCRPPRLPRPRPRPHWWPRP" has shrunken log2 fold change at or above -0.02?
yes (1)

Can "RRIRIRPPRLPRPRPRPTPSPRP" be said to have shrunken log2 fold change at or above -0.02?
yes (1)

Record "RRIRFRPPRLPRPRPRPCEIPRP" ; criterion: shrunken log2 fold change no lower than -0.02. Met?
no (0)

Evaluate "RRIRVRPPRLPRPRPRPGHCPRP" : shrunken log2 fold change at minimum -0.02?
yes (1)

###

system: Escherichia coli TOP10; assay: shrunken log2 fold change of peptide-encoding DNA abundance (4.5 h post-induction vs induction); higher = less antimicrobial activity (less host growth inhibition); conditions: time post-induction: 4.5 h; library: site-saturation at positions 5, 18, 19, 20
measure-name: shrunken log2 fold change
// keep it numeric: no unit symbol after the value

Value lookup for shrunken log2 fold change; key = "RRIRPRPPRLPRPRPRPWVTPRP"
-0.00388

Item under review: "RRIRCRPPRLPRPRPRPLVCPRP" . Reported shrunken log2 fold change?
-0.0544

Query (sequence): "RRIRWRPPRLPRPRPRPQSCPRP" ; field requested: shrunken log2 fold change
0.0975

GET /values?readout=shrunken log2 fold change&item= "RRIRLRPPRLPRPRPRPKQIPRP"
0.0389

Entry "RRIRARPPRLPRPRPRPLNLPRP" has what shrunken log2 fold change?
0.0866

Which measured shrunken log2 fold change value corresponds to "RRIRVRPPRLPRPRPRPEPYPRP" ?
-0.2

###

tested on: Escherichia coli TOP10; assay: shrunken log2 fold change of peptide-encoding DNA abundance (4.5 h post-induction vs induction); higher = less antimicrobial activity (less host growth inhibition); conditions: time post-induction: 4.5 h; library: site-saturation at positions 5, 18, 19, 20
Exercise: for every item that follows, state its recorded shrunken log2 fold change.
When you answer, write just the number.

Notebook: pull reported shrunken log2 fold change for Escherichia coli TOP10, entry "RRIRPRPPRLPRPRPRPHWVPRP"
-0.137

For Escherichia coli TOP10, provide shrunken log2 fold change of "RRIRVRPPRLPRPRPRPHDEPRP" please.
0.0655

Which shrunken log2 fold change is reported with Escherichia coli TOP10 for this entry: "RRIRHRPPRLPRPRPRPAKCPRP" ?
-0.0799

# get_value(readout= shrunken log2 fold change, system= Escherichia coli TOP10) for "RRIRIRPPRLPRPRPRPYNIPRP"
-0.257

Give recorded shrunken log2 fold change with Escherichia coli TOP10 for the following sequence: "RRIRPRPPRLPRPRPRPPMRPRP"
0.833

Find shrunken log2 fold change (Escherichia coli TOP10) for the entry "RRIRARPPRLPRPRPRPTENPRP"
0.381

Observed shrunken log2 fold change on Escherichia coli TOP10 for "RRIRGRPPRLPRPRPRPAMWPRP" , please.
1.02

Escherichia coli TOP10 / shrunken log2 fold change / "RRIRNRPPRLPRPRPRPYWHPRP" : value?
-0.0277

Lab note: need shrunken log2 fold change for "RRIRCRPPRLPRPRPRPVGNPRP" on Escherichia coli TOP10, anyone have it?
-0.0972

For the record "RRIRIRPPRLPRPRPRPLLFPRP" , what value of shrunken log2 fold change is listed for Escherichia coli TOP10?
-0.553

shrunken log2 fold change of "RRIRQRPPRLPRPRPRPNMNPRP" on Escherichia coli TOP10?
-0.528

Hi! What's the reported shrunken log2 fold change for "RRIRIRPPRLPRPRPRPFNWPRP" on Escherichia coli TOP10?
-0.155

Record "RRIRNRPPRLPRPRPRPVWWPRP" : what is its shrunken log2 fold change with Escherichia coli TOP10?
0.259

Form field - read-out: shrunken log2 fold change; system: Escherichia coli TOP10; submitted item: "RRIRERPPRLPRPRPRPCFGPRP"
-0.252

Under Escherichia coli TOP10: shrunken log2 fold change value of "RRIRTRPPRLPRPRPRPYISPRP" ?
-0.382

API: value(readout=shrunken log2 fold change, system=Escherichia coli TOP10) for record "RRIRARPPRLPRPRPRPYVEPRP"
-0.162

Escherichia coli TOP10 / shrunken log2 fold change / "RRIRWRPPRLPRPRPRPRPLPRP" : value?
0.158

GET /values?readout=shrunken log2 fold change&system=Escherichia coli TOP10&item= "RRIRPRPPRLPRPRPRPAGFPRP"
0.301

Query for Escherichia coli TOP10: what shrunken log2 fold change does the record show for "RRIRGRPPRLPRPRPRPKATPRP" ?
1.52

Item: "RRIRARPPRLPRPRPRPNTNPRP" Test system: Escherichia coli TOP10 Read-out: shrunken log2 fold change Value: ?
-0.0214

Field: shrunken log2 fold change (Escherichia coli TOP10). Entry: "RRIRFRPPRLPRPRPRPYHLPRP"
-0.643

Form entry - test system: Escherichia coli TOP10; read-out: shrunken log2 fold change; sequence: "RRIRDRPPRLPRPRPRPNVLPRP"
-0.45

What reported shrunken log2 fold change corresponds to "RRIRVRPPRLPRPRPRPFKEPRP" on Escherichia coli TOP10?
0.121

Recorded shrunken log2 fold change for "RRIRKRPPRLPRPRPRPKGIPRP" with Escherichia coli TOP10, please?
0.106

Hello, I am looking for reported shrunken log2 fold change with Escherichia coli TOP10 for "RRIRERPPRLPRPRPRPDPPPRP" . Could you help?
0.32

# query: shrunken log2 fold change | item "RRIRKRPPRLPRPRPRPIQLPRP" | system: Escherichia coli TOP10
-0.0418

What value of shrunken log2 fold change on Escherichia coli TOP10 does "RRIRLRPPRLPRPRPRPNKTPRP" have?
0.0829

Provide value of shrunken log2 fold change for this record tested with Escherichia coli TOP10: "RRIRPRPPRLPRPRPRPGANPRP"
0.364

Fill in the recorded shrunken log2 fold change for this sequence, with Escherichia coli TOP10 as test system: "RRIRRRPPRLPRPRPRPDNLPRP"
0.000421

###

tested on: Escherichia coli TOP10; assay: shrunken log2 fold change of peptide-encoding DNA abundance (4.5 h post-induction vs induction); higher = less antimicrobial activity (less host growth inhibition); conditions: time post-induction: 4.5 h; library: site-saturation at positions 5, 18, 19, 20
So I've got a bunch of sequences here, and I need their shrunken log2 fold change values.
Write no unit; give the number alone.

Kindly state the measured shrunken log2 fold change obtained for "RRIRPRPPRLPRPRPRPKVKPRP" with Escherichia coli TOP10.
-0.236

Give Escherichia coli TOP10 shrunken log2 fold change for "RRIRERPPRLPRPRPRPLFLPRP"
-0.306

Query shrunken log2 fold change on Escherichia coli TOP10 for "RRIRFRPPRLPRPRPRPRNLPRP"
-0.016

Escherichia coli TOP10 / shrunken log2 fold change / "RRIRMRPPRLPRPRPRPKECPRP" : value?
-0.0981

###

system: Escherichia coli TOP10; test: shrunken log2 fold change of peptide-encoding DNA abundance (4.5 h post-induction vs induction); higher = less antimicrobial activity (less host growth inhibition); conditions: time post-induction: 4.5 h; library: site-saturation at positions 5, 18, 19, 20;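 also: peptides expressed intracellularly from a pBAD plasmid library in pooled LB shake-flask culture, induced with 0.3% L-arabinose, DNA abundance read by NGS, three biological replicates, DESeq2 with apeglm shrinkage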
I'd appreciate it if you could supply shrunken log2 fold change values for the items below.
Please respond with just the number, no unit label.

For the sequence "RRIRKRPPRLPRPRPRPHLRPRP" , what shrunken log2 fold change is on record?
-0.0961

Entry "RRIRYRPPRLPRPRPRPKIIPRP" has what shrunken log2 fold change?
-1.21

Query (sequence): "RRIRNRPPRLPRPRPRPQYAPRP" ; field requested: shrunken log2 fold change
-0.0234

So what's the measured shrunken log2 fold change for this one? "RRIRGRPPRLPRPRPRPNWYPRP"
-0.0124

Give the measured shrunken log2 fold change of "RRIRWRPPRLPRPRPRPHCAPRP" .
-0.0143

What does the data say about its shrunken log2 fold change? Entry: "RRIRGRPPRLPRPRPRPKEQPRP"
0.0833

Which shrunken log2 fold change reading was recorded for the sequence "RRIRIRPPRLPRPRPRPAMYPRP" ?
-0.733

Consider the sequence shown here: "RRIRMRPPRLPRPRPRPIWNPRP" What is its recorded shrunken log2 fold change?
-0.0214

I have this sequence here, "RRIRNRPPRLPRPRPRPEYAPRP" , and I need its recorded shrunken log2 fold change.
-0.175

What does the record list as shrunken log2 fold change for "RRIRCRPPRLPRPRPRPQQDPRP" ?
-0.046

Return reported shrunken log2 fold change; argument: "RRIRCRPPRLPRPRPRPTKAPRP"
0.209

# get_value(readout='shrunken log2 fold change', item= "RRIRGRPPRLPRPRPRPRPNPRP" )
0.64

shrunken log2 fold change lookup needed for "RRIRPRPPRLPRPRPRPCYFPRP" , thanks.
-0.0997

Would you mind telling me what shrunken log2 fold change value was observed for "RRIRDRPPRLPRPRPRPCQVPRP" ?
-0.0566

I would be grateful if you could share the reported shrunken log2 fold change for "RRIRLRPPRLPRPRPRPRKSPRP" .
0.376

Form field: reported shrunken log2 fold change of "RRIRKRPPRLPRPRPRPGSNPRP"
-0.0467

So what does the record say about shrunken log2 fold change for "RRIRTRPPRLPRPRPRPPEQPRP" ?
0.151

Can you look up the measured shrunken log2 fold change of "RRIRWRPPRLPRPRPRPMVFPRP" for me?
0.274

Requested field: shrunken log2 fold change. Item: "RRIRRRPPRLPRPRPRPKTTPRP"
0.0923

Need shrunken log2 fold change, item "RRIRIRPPRLPRPRPRPMWGPRP"
-0.196

What value of measured shrunken log2 fold change is listed for "RRIRWRPPRLPRPRPRPQVKPRP" ?
0.0306

If you can, please state the reported shrunken log2 fold change value of "RRIRYRPPRLPRPRPRPLQRPRP" .
-0.208

What does the data say about its shrunken log2 fold change? Entry: "RRIRERPPRLPRPRPRPDEKPRP"
0.147

Which shrunken log2 fold change value is on record for "RRIRARPPRLPRPRPRPWHWPRP" ?
0.209

Sourced from the supplement of paper PMC9112550
